Parameter Kd, tested on TYRO3 (Homo sapiens, UniProt Q06418), listed per item.
Sequence (Q06418 41-890): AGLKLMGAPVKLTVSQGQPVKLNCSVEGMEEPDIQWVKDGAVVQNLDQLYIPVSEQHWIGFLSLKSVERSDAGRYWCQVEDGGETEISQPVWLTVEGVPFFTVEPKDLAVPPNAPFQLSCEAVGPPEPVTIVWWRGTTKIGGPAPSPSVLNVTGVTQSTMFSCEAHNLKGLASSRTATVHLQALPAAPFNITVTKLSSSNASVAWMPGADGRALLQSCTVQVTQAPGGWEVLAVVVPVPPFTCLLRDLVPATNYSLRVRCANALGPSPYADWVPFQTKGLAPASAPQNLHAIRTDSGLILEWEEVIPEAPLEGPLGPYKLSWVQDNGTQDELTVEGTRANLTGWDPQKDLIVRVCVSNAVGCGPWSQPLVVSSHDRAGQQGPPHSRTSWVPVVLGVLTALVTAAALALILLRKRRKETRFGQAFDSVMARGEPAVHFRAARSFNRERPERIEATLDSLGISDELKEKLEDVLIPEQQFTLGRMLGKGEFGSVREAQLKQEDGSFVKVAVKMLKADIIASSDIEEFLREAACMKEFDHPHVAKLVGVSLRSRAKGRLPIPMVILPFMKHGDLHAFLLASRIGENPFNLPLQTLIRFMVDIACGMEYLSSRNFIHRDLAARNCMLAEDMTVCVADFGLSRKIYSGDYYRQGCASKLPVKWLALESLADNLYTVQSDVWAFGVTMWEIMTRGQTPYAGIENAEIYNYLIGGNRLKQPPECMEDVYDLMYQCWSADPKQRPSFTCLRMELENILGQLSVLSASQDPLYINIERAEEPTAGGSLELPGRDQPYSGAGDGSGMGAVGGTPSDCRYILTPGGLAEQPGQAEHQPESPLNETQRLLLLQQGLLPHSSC

{"Chem smiles": "CCOc1cn(-c2ccc(F)c(CN(C)C)c2)nc1C(=O)Nc1ccc(Oc2ccnc3cc(OC)c(OC)cc23)cn1", "Subject of test": "TYRO3 (Homo sapiens, UniProt Q06418)", "Kd": "< 100 nM"}
{"Chem smiles": "CCOc1cn(-c2ccc(C#N)cn2)nc1C(=O)Nc1ccc(Oc2ccnc3cc(OC)c(OC)cc23)cn1", "Subject of test": "TYRO3 (Homo sapiens, UniProt Q06418)", "Kd": "≥ 1000 nM"}
{"Chem smiles": "CCOc1cn(-c2ccccn2)nc1C(=O)Nc1ccc(Oc2ccnc3cc(OC)c(OC)cc23)cn1", "Subject of test": "TYRO3 (Homo sapiens, UniProt Q06418)", "Kd": "100 to 1000 nM"}
{"Chem smiles": "CCOc1cnn(Cc2cnccn2)c1C(=O)Nc1ccc(Oc2ccnc3cc(OC)c(OC)cc23)cc1F", "Subject of test": "TYRO3 (Homo sapiens, UniProt Q06418)", "Kd": "≥ 1000 nM"}
{"Chem smiles": "CCOc1cn(-c2cnc(F)cn2)nc1C(=O)Nc1ccc(Oc2ccnc3cc(OC)c(OC)cc23)cn1", "Subject of test": "TYRO3 (Homo sapiens, UniProt Q06418)", "Kd": "100 to 1000 nM"}
{"Chem smiles": "CCOc1cnn(CC2CCN(C)CC2)c1C(=O)Nc1ccc(Oc2ccnc3cc(OC)c(OC)cc23)cc1F", "Subject of test": "TYRO3 (Homo sapiens, UniProt Q06418)", "Kd": "≥ 1000 nM"}
{"Chem smiles": "COc1cc2nccc(Oc3ccc(NC(=O)c4nn(-c5ccc(F)c(C(C)=O)c5)cc4OCC(F)(F)F)nc3)c2cc1OC", "Subject of test": "TYRO3 (Homo sapiens, UniProt Q06418)", "Kd": "< 100 nM"}

----------
Molecular target: TYRO3 (Homo sapiens)
Construct: purchased Life Technologies
Assay: LanthaScreen Eu kinase binding assay, TYRO3
Conditions: Tracer 236
Method: LanthaScreen® Eu Kinase Binding assays were conducted at Life Technologies using the manufacturer's specifications for each kinase indicated. Briefly, the principle behind this assay is based upon the binding and displacement of an Alexa Fluor 647-labeled tracer to the kinase of interest. Binding of the tracer to the kinase is detected using an EU-labeled anti-tag antibody. Simultaneous binding of both the tracer and antibody to the kinase gives rise to a FRET-signal. […]
As shown below, each of these compounds has a reported Kd value.

{"Compound": "CCOc1cn(-c2cnccc2C(F)(F)F)nc1C(=O)Nc1ccc(Oc2ccnc3cc(OC)c(OC)cc23)cc1F [Compound 196]", "Kd": "< 100 nM"}
{"Compound": "CCOc1cn(CCn2cccn2)nc1C(=O)Nc1ccc(Oc2ccnc3cc(OC)c(OC)cc23)cn1 [Compound 37]", "Kd": "100 to 1000 nM"}
{"Compound": "CCOc1cnn(C2CCCN(C)C2)c1C(=O)Nc1ccc(Oc2ccnc3cc(OC)c(OC)cc23)cc1F (stereo not shown) [Compound 213]", "Kd": "≥ 1000 nM"}
{"Compound": "CCOc1cn(Cc2cccnc2)nc1C(=O)Nc1ccc(Oc2ccnc3cc(OC)c(OC)cc23)cn1 [Compound 83]", "Kd": "100 to 1000 nM"}
{"Compound": "CCC(C)Oc1cc2nccc(Oc3ccc(NC(=O)c4nn(-c5cnc(N)nc5)cc4OCC(F)(F)F)nc3)c2cc1OC (stereo not shown) [Compound 235]", "Kd": "< 100 nM"}
{"Compound": "CCOc1cn(-c2ccncc2C)nc1C(=O)Nc1ccc(Oc2ccnc3cc(OC)c(OC)cc23)cn1 [Compound 34]", "Kd": "< 100 nM"}
{"Compound": "CCOc1cn(-c2ccc(F)c(CO)c2)nc1C(=O)Nc1ccc(Oc2ccnc3cc(OC)c(OC)cc23)cn1 [Compound 128]", "Kd": "< 100 nM"}
